Recorded values, source PubChem BioAssay (NCI).

experiment: NCI Yeast Anticancer Drug Screen. Data for the mlh1 rad18 strain (AID 175); settings: S. cerevisiae mlh1 rad18 strain growth inhibition; at 50.0 µM; hits give high values
This is part of a sample that, as a whole, favours compounds with a hit. Of some 79,000 tested, about 15% had one in any assay.
value_type: growth inhibition (%)
Give the number; % is assumed, so skip it.

Exercise: I would be grateful if you could share the reported growth inhibition for O=C(Nc1ccccc1Br)c1cccc([N+](=O)[O-])c1O .
Key: 37.1

Exercise: I would be grateful if you could share the reported growth inhibition for N#Cc1c(N)[nH]c(=S)c(C#N)c1-c1ccccc1 .
Key: 35.1

Exercise: I would be grateful if you could share the reported growth inhibition for CC1(C(=O)O)CCCN1 (stereo not given) .
Key: -9

Exercise: I would be grateful if you could share the reported growth inhibition for CNC(=O)Nc1ccc(Cl)cc1C(=O)O .
Key: -7.45

Exercise: I would be grateful if you could share the reported growth inhibition for O=C1NC(=O)[C@H]2C[C@H]3C(=O)NC(=O)[C@H]3[C@@H]12 .
Key: 7.15

Exercise: I would be grateful if you could share the reported growth inhibition for O=C(Cc1cccc2c(=O)cc(-c3ccccc3)oc12)OCCN1CCOCC1 .
Key: 29.4

Exercise: I would be grateful if you could share the reported growth inhibition for NNC(=O)c1ccccc1F .
Key: -19.2

Exercise: I would be grateful if you could share the reported growth inhibition for CN(C)C(=O)Sc1ccc(N(C)C)cc1 .
Key: -23.2

Exercise: I would be grateful if you could share the reported growth inhibition for COCCN1CC(=O)N2Cc3ccccc3CN2C(=O)C1 .
Key: -6.65

Exercise: I would be grateful if you could share the reported growth inhibition for CC(C)Cn1cnc2c(Sc3c([N+](=O)[O-])ncn3C)nc(N)nc21 .
Key: 7.15

Exercise: I would be grateful if you could share the reported growth inhibition for CCOC(SCC)C(O)C(O)C(O)C(O)CO (stereo not given) .
Key: -21.6

Exercise: I would be grateful if you could share the reported growth inhibition for CC1(C)OCC2OC(O)C(OS(=O)(=O)c3ccc([N+](=O)[O-])cc3)C2O1 (stereo not given) .
Key: -30.3

Exercise: I would be grateful if you could share the reported growth inhibition for CC(=O)Oc1c(C)cc2c(c1C)C(C)(C)CN2C(=O)C(C)(C)C .
Key: 7.9

Exercise: I would be grateful if you could share the reported growth inhibition for CSc1ccc(OC(=O)Nc2cc(Cl)ccc2C)cc1 .
Key: 5.75

Exercise: I would be grateful if you could share the reported growth inhibition for Clc1ccc(-n2cccc2)cc1 .
Key: -6.3

Exercise: I would be grateful if you could share the reported growth inhibition for CCOC(=O)c1ccc(NC(=O)Nc2cc(Cl)ncn2)cc1 .
Key: -6.15

Exercise: I would be grateful if you could share the reported growth inhibition for Cn1cnc([N+](=O)[O-])c1Sc1nc2ccccc2[nH]1 .
Key: -19.1

Exercise: I would be grateful if you could share the reported growth inhibition for CCOC(=O)N1CCN(CCO)CC1 .
Key: -8.25

Exercise: I would be grateful if you could share the reported growth inhibition for Fc1cccc(C(Nc2nncs2)Nc2nncs2)c1 .
Key: -4.35

Exercise: I would be grateful if you could share the reported growth inhibition for CN(C)c1cc2c(cc1N(C)C)-c1ccccc1C2 .
Key: 28.9

Exercise: I would be grateful if you could share the reported growth inhibition for Cc1cc2ccccc2c(Br)c1C .
Key: 4.7

Exercise: I would be grateful if you could share the reported growth inhibition for O=C(C1SCCCS1)N(O)c1ccccc1OCc1ccccc1 .
Key: -19.8

Exercise: I would be grateful if you could share the reported growth inhibition for CCN(CC)Cc1cc(N=Nc2cccc3ccccc23)c2ccccc2c1O .
Key: 35.7

Exercise: I would be grateful if you could share the reported growth inhibition for CN(C)c1ncnc2c1cnn2C1OC(CO)C(O)C1O (stereo not given) .
Key: 30.7

Exercise: I would be grateful if you could share the reported growth inhibition for C/C1=C/C(C)CC(C)OC(=O)C(C)NC(=O)C(Cc2ccc(O)c(I)c2)N(C)C(=O)C(C)NC(=O)C(C)C1 (stereo not given) .
Key: 91.2

Exercise: I would be grateful if you could share the reported growth inhibition for CS(=O)(=O)N1CCCN(S(C)(=O)=O)COC1 .
Key: -0.35

Exercise: I would be grateful if you could share the reported growth inhibition for CCCCCCCCCCCCCCCCCC(=O)OCCCC .
Key: -22

Exercise: I would be grateful if you could share the reported growth inhibition for O=C(/C=C\c1ccccc1)OCc1ccccc1CN1CCCCC1 .
Key: 12.8

Exercise: I would be grateful if you could share the reported growth inhibition for N#CCCC(=O)O .
Key: 15.8

Exercise: I would be grateful if you could share the reported growth inhibition for CC(=Nc1ccc(Cl)cc1)c1ccncc1 .
Key: -1.8

Exercise: I would be grateful if you could share the reported growth inhibition for Nc1nc2nc(C(=O)O)c(=S)[nH]c2c(=O)[nH]1 .
Key: -8.25

Exercise: I would be grateful if you could share the reported growth inhibition for Cc1ccc(S(=O)(=O)OC(F)(F)C(F)(F)F)cc1 .
Key: 5.5

Exercise: I would be grateful if you could share the reported growth inhibition for CCCCNCCCC .
Key: -16.6

Exercise: I would be grateful if you could share the reported growth inhibition for CCCCC1c2c([nH]c3ccccc23)C2C(=O)N(c3ccc(OC)cc3)C(=O)C2C1CCC (stereo not given) .
Key: -5.6

Exercise: I would be grateful if you could share the reported growth inhibition for CCON=C(c1ccc(Cl)cc1)c1ccc(Cl)cc1 .
Key: 1.4

Exercise: I would be grateful if you could share the reported growth inhibition for Cc1c(O)ccc2c1CCCC2 .
Key: 4.65

Exercise: I would be grateful if you could share the reported growth inhibition for O=c1c(CN(CCO)CCO)c(-c2ccccc2)sc2ccccc12 .
Key: 14.7

Exercise: I would be grateful if you could share the reported growth inhibition for Cn1c2cc(Cl)c(Cl)cc2nc2cc3c(cc21)c(Cl)c(=O)c1cc2cc(Cl)c(Cl)cc2cc13 .
Key: 20.3

Exercise: I would be grateful if you could share the reported growth inhibition for CCOC(=O)C1C(=O)CC(=O)C(C(=O)OCC)C1C1CC=CCC1 (stereo not given) .
Key: 78.5

Exercise: I would be grateful if you could share the reported growth inhibition for CC(=O)OC1CCC2(C)C3=C(C(=O)CC2C1(C)C)C1(C)CCC(C(C)CCCC(C)C)C1(C)CC3 (stereo not given) .
Key: -0.6

Exercise: I would be grateful if you could share the reported growth inhibition for OCc1c(CO)c(C(F)(F)F)n2c1CCC2 .
Key: 2.55

Exercise: I would be grateful if you could share the reported growth inhibition for OCC(O)COCC#Cc1ccccc1 (stereo not given) .
Key: 16.2

Exercise: I would be grateful if you could share the reported growth inhibition for COc1ccc(OC)c(N=Cc2cccs2)c1 .
Key: 22.1

Exercise: I would be grateful if you could share the reported growth inhibition for Nc1cc(C(=O)O)cc2ccccc12 .
Key: 26.6

Exercise: I would be grateful if you could share the reported growth inhibition for CN1Cc2ccccc2C1 .
Key: 5.55

Exercise: I would be grateful if you could share the reported growth inhibition for Cc1cc2c(=O)n(-c3ccc(F)cc3)c(C)nc2c(C(=O)O)c1C .
Key: 9.55

Exercise: I would be grateful if you could share the reported growth inhibition for Cc1ccc2c(O)c3c(cc2c1O)C(=O)c1ccccc1C3=O .
Key: 31.2

Exercise: I would be grateful if you could share the reported growth inhibition for c1ccc([P+](Cc2ccc(C[P+](c3ccccc3)(c3ccccc3)c3ccccc3)cc2)(c2ccccc2)c2ccccc2)cc1 .
Key: 37.5

Exercise: I would be grateful if you could share the reported growth inhibition for CC(C)CC1=[N+]=C(NC#N)N=C(CCC(=O)Nc2ccccc2[N+](=O)[O-])C1 .
Key: 1.7

Exercise: I would be grateful if you could share the reported growth inhibition for CC(=O)C(CCC(=O)O)(CCC(=O)O)c1ccccc1 .
Key: 20.2
